# Test system: RXRa homodimer (NR concentration 180 nM)
# Protocol notes: PBM binding z-score (relative to random genomic background probes); higher = stronger binding; sequences stand for … in GC…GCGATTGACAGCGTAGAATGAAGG
What PBM binding z-score was measured for each of the following?

| Chain | Target or system | PBM binding z-score |
| --- | --- | --- |
| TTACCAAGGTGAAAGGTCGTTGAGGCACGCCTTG | RXRa homodimer (NR concentration 180 nM) | 6.39 |
| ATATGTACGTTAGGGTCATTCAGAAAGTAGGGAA | RXRa homodimer (NR concentration 180 nM) | 4.98 |
| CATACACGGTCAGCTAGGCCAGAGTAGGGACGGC | RXRa homodimer (NR concentration 180 nM) | 0.355 |

Would you be so kind as to report PBM binding z-score for each listed record?
1. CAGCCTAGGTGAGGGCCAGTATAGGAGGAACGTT
2. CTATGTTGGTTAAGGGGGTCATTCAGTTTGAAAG

[-0.128, 5.18]

I would be grateful if you could share the reported PBM binding z-score for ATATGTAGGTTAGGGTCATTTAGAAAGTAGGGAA . 5.07

====

# System: RARg:RXRa (NR concentration 270 nM, RXRa partner concentration 90 nM)
# Protocol notes: PBM binding z-score (relative to random genomic background probes); higher = stronger binding; sequences stand for … in GC…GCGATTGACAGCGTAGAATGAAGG
Okay, here is how we bin by PBM binding z-score: lowest (below 3), middle (3 to below 5), highest (5 or more)

# example entries with known answers
| Chain | Group label |
| --- | --- |
| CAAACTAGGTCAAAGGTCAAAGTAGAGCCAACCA | highest |
| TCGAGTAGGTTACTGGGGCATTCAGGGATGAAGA | lowest |
| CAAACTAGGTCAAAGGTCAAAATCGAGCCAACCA | highest |
| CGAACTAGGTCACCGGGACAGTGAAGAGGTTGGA | middle |
| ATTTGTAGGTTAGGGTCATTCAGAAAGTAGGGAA | middle |
| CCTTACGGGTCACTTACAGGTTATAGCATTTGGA | highest |
| GGAACGGGGGCAAGTTGATAGCAGAGTTTGATGG | middle |
| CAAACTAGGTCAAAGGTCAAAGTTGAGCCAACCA | highest |
| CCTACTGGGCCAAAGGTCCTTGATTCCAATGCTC | lowest |
| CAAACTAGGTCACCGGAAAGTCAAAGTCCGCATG | highest |

Class label required: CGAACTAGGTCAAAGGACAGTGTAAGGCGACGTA middle

Bin? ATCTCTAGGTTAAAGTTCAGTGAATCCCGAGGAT middle

Band for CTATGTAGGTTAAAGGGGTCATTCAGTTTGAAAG ? highest

Hey, which category is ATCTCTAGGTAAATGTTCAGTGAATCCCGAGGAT in, do you know? lowest

State the class of the sequence shown: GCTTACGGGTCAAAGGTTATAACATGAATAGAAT highest

Which bin, given its PBM binding z-score, does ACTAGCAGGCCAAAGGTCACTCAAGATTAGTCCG occupy? highest

# bin lookup: classify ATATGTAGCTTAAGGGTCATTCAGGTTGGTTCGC by its PBM binding z-score middle

Kindly state the category for this sequence: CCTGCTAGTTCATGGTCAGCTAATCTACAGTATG lowest

Given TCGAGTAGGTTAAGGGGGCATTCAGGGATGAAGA , name the class its PBM binding z-score places it in. middle

Classify this sequence: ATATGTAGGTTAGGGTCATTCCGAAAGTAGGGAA middle

Returns: class label. Input: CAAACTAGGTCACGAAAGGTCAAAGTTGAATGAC highest

Assign a category based on measured PBM binding z-score for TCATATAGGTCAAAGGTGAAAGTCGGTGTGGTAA and give only the class name. highest

Lab note: sort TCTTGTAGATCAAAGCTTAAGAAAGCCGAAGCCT into the matching PBM binding z-score band. lowest

Assign a bin to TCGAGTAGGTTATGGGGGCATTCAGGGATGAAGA lowest

# bin label for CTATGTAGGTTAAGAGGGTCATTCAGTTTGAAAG middle

Each sequence maps to one class by PBM binding z-score. Which class for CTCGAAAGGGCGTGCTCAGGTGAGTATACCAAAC ? lowest

Band of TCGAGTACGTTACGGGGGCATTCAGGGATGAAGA ? lowest

Band for the recorded PBM binding z-score of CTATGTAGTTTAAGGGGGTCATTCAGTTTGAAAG ? middle

====

# Test system: VDR:RXRa (NR concentration 270 nM, RXRa partner concentration 90 nM)
# Protocol notes: PBM binding z-score (relative to random genomic background probes); higher = stronger binding; sequences stand for … in GC…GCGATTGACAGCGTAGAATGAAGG
Observation type: PBM binding z-score
One number for each entry.

Illustrative cases are given below, each with its answer.
| Chain | Target or system | PBM binding z-score |
| --- | --- | --- |
| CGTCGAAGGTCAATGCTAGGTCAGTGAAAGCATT | VDR:RXRa (NR concentration 270 nM, RXRa partner concentration 90 nM) | 4.47 |
| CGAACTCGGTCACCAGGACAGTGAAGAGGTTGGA | VDR:RXRa (NR concentration 270 nM, RXRa partner concentration 90 nM) | 1.87 |

Turning now to a further record.
GET /values?readout=PBM binding z-score&system=VDR:RXRa (NR concentration 270 nM, RXRa partner concentration 90 nM)&item= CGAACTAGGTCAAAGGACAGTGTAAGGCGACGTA 1.58

====

# Test system: VDR:RXRa (NR concentration 270 nM, RXRa partner concentration 90 nM)
# Protocol notes: PBM binding z-score (relative to random genomic background probes); higher = stronger binding; sequences stand for … in GC…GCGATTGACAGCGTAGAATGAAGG
Observation type: PBM binding z-score

Would you please look over these solved cases?
| Chain | Result |
| --- | --- |
| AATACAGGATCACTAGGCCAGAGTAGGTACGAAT | -0.235 |
| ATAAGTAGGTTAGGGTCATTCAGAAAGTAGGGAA | 4.88 |
| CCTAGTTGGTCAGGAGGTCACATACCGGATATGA | 3.57 |
| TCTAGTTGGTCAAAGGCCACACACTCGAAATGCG | 1.04 |
| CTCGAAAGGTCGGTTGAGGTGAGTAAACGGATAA | 2.11 |

Now for another entry.
Bench note: what PBM binding z-score did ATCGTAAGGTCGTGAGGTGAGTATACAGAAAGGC show? 2.8

====

# System: PPARg homodimer (NR concentration 180 nM)
# Protocol notes: PBM binding z-score (relative to random genomic background probes); higher = stronger binding; sequences stand for … in GC…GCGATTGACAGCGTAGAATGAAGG
Please respond with reported PBM binding z-score for every item in the list.
Numbers only.

Use these answered entries as a reference point.
| Chain | PBM binding z-score |
| --- | --- |
| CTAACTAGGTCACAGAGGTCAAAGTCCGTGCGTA | 4.09 |
| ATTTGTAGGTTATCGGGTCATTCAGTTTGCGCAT | 3.32 |
| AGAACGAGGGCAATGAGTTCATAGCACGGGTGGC | 0.482 |
| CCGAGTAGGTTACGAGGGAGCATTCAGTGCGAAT | 0.106 |
| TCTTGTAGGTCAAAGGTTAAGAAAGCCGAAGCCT | 3.23 |
| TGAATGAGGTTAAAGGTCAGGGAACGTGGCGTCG | 5.36 |
| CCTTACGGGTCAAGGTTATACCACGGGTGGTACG | 3.33 |
| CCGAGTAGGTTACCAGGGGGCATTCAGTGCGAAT | 1.99 |

Report PBM binding z-score for each item below.
1. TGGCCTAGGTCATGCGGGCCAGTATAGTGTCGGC
2. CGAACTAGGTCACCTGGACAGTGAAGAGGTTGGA
3. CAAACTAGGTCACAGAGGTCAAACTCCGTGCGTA
4. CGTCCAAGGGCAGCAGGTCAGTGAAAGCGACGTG
5. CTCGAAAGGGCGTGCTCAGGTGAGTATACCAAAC
6. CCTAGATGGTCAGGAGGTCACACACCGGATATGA
7. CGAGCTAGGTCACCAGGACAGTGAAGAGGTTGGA

[0.35, 1.42, 5.38, 0.592, -0.194, 3.94, 1.48]

====

# Tested on: PPARg DBDmut IVT, anti-PPARg (DBD mutation: PPARg1 K132A/R137A, NR concentration 270 nM)
# Protocol notes: PBM binding z-score (relative to random genomic background probes); higher = stronger binding; sequences stand for … in GC…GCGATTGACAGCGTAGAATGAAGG
PBM binding z-score of 0.3 or higher: Condition met. Under 0.3: Condition not met.

| Chain | Group label |
| --- | --- |
| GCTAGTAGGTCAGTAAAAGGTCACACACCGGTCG | Condition met |

# bool: PBM binding z-score of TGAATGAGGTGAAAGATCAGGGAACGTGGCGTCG >= 0.3 Condition met

Decide: is the reported value of PBM binding z-score for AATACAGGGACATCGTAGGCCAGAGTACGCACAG equal to or greater than 0.3? Condition not met
